# TARGET_SYSTEM: T1, hCD47-ECD/Fc protein (Sinobiological) (human, UniProt Q08722 19-139, biotinylated in the Octet assay, sites not stated)
# T1 construct: extracellular domain; Bought protein; also called human CD47-Fc antigen; recombinant hCD47-ECD/Fc; not shown: Fc part of the bought fusion protein
# T1 sequence (Q08722 19-139 limits assumed): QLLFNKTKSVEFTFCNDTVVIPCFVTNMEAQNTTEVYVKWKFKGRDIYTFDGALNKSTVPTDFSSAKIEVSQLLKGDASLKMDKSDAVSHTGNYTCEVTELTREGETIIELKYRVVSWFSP
# EXPERIMENTAL_PROTOCOL: ELISA, coated hCD47-ECD/Fc
// reported EC50 for each item listed
# value in nM; strip the unit string

BINDER	EC50 (nM)
TY25035 (antibody, V domains shown) VH: EVQLVESGGGLVQPGGSLRLSCAASGYSISSGYHWDWIRQAPGKGLEWLARIYWDGDKRYSPSLKSRLTISRDNSKNTLYLQLNSLRAEDTAVYYCARFSDGFDPWGQGTLVTVSS VL: EIVLTQSPATLSLSPGERATLSCRASQSVDFVGISFLHWYQQKPGQAPRLLIYDASNRATGIPARFSGSGSGTDFTLTISSLEPEDFAVYYCVQGLQWPHTFGQGTKVEIKR	2.55

Next:
Query: Need EC50 of TY21447 (antibody, V domains shown) VH: EVQLVESGGGLVQPGGSLRLSCAASGFTFSNYAIHWVRQAPGKGLEWVSAISGSGSSTYYADSVKGRFTISRDNSKNTLYLQLNSLRAEDTAVYYCARRGSYGFGAFDYWGQGTLVTVSS VL: DIQLTQSPSSLSASVGDRVTITCRASQTIGRYLNWYQQKPGKAPKLLIYDASNRATGIPSRFSGSGSGTDFTLTISSLQPEDFATYYCQQRYPWPYTFGQGTKVEIKR , thanks.
Result: 0.33
